From: ChEMBL document CHEMBL4627415

Biological target: Bile acid receptor (Homo sapiens)
Sequence (Q96RI1 whole entry): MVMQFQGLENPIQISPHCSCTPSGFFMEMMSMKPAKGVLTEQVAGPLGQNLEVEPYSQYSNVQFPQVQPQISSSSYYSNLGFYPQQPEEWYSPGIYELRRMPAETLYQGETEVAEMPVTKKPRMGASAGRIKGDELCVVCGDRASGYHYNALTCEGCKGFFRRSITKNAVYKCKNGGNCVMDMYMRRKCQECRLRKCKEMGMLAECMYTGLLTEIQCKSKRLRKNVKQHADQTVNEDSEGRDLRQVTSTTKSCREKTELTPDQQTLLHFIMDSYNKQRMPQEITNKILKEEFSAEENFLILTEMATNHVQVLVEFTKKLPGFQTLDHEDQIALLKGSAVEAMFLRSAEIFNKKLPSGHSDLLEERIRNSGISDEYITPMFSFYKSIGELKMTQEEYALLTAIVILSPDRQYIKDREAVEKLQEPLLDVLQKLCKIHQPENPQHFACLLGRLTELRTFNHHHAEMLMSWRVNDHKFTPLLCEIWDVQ
Assay: Activation of human FXR LBD expressed in HEK293T cells assessed as induction of receptor activation incubated for 12 to 14 hrs by luciferase reporter gene assay
measuredEndpoint: log10 EC50 (log10 of the value in nM)
Kindly note that the scale is log10 and the underlying EC50 is in nM.

[Q] Requested field: log10 EC50. Item: CC(C)c1onc(-c2ccccc2C(F)(F)F)c1COc1ccc(CCCC(=O)O)cc1
[A] 3.64

[Q] Requested field: log10 EC50. Item: Cc1cc(NCc2ccc(OCc3c(-c4c(Cl)cccc4Cl)noc3C(C)C)cc2)ccc1CC(=O)O
[A] 3.08

[Q] Requested field: log10 EC50. Item: CC(C)c1onc(-c2ccccc2)c1COc1ccc(Oc2ccc(C(=O)O)cc2)cc1
[A] 4.04

[Q] Requested field: log10 EC50. Item: CC(C)c1onc(-c2c(Cl)cccc2Cl)c1COc1ccc(COc2ccc(CC(=O)O)cc2)cc1
[A] 3.30

[Q] Requested field: log10 EC50. Item: CC(C)c1onc(-c2c(Cl)cccc2Cl)c1COc1ccc(CNc2ccc(CC(=O)O)cc2)c(Cl)c1
[A] 2.97

[Q] Requested field: log10 EC50. Item: CC(C)c1onc(-c2c(Cl)cccc2Cl)c1COc1ccc(COc2ccc(CC(=O)O)cc2)c(Cl)c1
[A] 2.90
